test system: AMPK in Huh-7 cells; experiment: Activation activity on AMPK in Huh-7 cells (Western Blot); assay type: cell-based; conditions: 10 μM, 12 h, Western Blot gray scale, relative to DMSO = 1
Binary classification by pAMPK/AMPK ratio, with 2 as an inclusive lower bound for MET; all other cases are NOT MET.

Can C[C@@H]1CC[C@]2(C(=O)O)CC[C@]3(C)C(=CC[C@@H]4[C@@]5(C)CC[C@H](O[C@@H]6OC[C@H](O)[C@H](O)[C@H]6O)C(C)(C)[C@@H]5CC[C@]43C)[C@@H]2[C@]1(C)O [(XIII), ziyuglycoside II] be said to have pAMPK/AMPK ratio at or above 2?
MET

Hi, just wondering whether CC1(C)CC[C@]2(C(=O)O)CC[C@]3(C)C(=CCC4[C@@]5(C)CC[C@H](O[C@@H]6O[C@H](C(=O)O)[C@@H](O)[C@H](O)[C@H]6O)C(C)(C)[C@@H]5CC[C@]43C)[C@@H]2C1 (stereo partly shown) [(III), calunduloside E] shows pAMPK/AMPK ratio of 2 or higher.
NOT MET

Has C[C@@H]1CC[C@]2(C(=O)O[C@@H]3O[C@H](CO)[C@@H](O)[C@H](O)[C@H]3O)CC[C@]3(C)C(=CC[C@@H]4[C@@]5(C)CC[C@H](O[C@@H]6OC[C@H](O)[C@H](O)[C@H]6O)C(C)(C)[C@@H]5CC[C@]43C)[C@@H]2[C@]1(C)O [(XII), ziyuglycoside I] a recorded pAMPK/AMPK ratio greater than or equal to 2?
MET

// inclusive: pAMPK/AMPK ratio at least 2? input: C[C@@H]1O[C@@H](O[C@H]2[C@H](O[C@H]3CC[C@@]4(C)[C@@H](CC[C@]5(C)[C@@H]4CC=C4[C@@H]6CC(C)(C)CC[C@]6(C(=O)O)CC[C@]45C)[C@]3(C)CO)OC[C@H](O)[C@@H]2O)[C@H](O)[C@H](O)[C@H]1O [(X), α-hederin]
MET

hey, is pAMPK/AMPK ratio for this one >= 2? CC1(C)CC[C@]2(C(=O)O[C@@H]3O[C@H](CO[C@@H]4O[C@H](CO)[C@@H](O)[C@H](O)[C@H]4O)[C@@H](O)[C@H](O)[C@H]3O)CC[C@]3(C)C(=CC[C@@H]4[C@@]5(C)CC[C@H](O[C@@H]6OC[C@H](O)[C@H](O)[C@H]6O)[C@@](C)(CO)[C@@H]5CC[C@]43C)[C@@H]2C1 [(II), asperosaponin VI]
MET
